- System: Neuregulin-1 EGF-like domain
- assayName: binders of neuregulin-1 EGF-like domain, primary screen, biochemical, small-molecule microarray, 635 nm fluorescence (AID 1081);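 note: binding of the protein to compounds printed on small-molecule microarray slides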
- runParameters: small-molecule microarray binding, higher = more signal
quantityName: composite z-score
Kindly provide the number alone.

Past entries and their recorded results:
CC(C)CN1CCc2nc(-c3ccccc3)c3c(c2CC1)CO[C@@H](C)C3 ... 0.132
COc1ccc(OC[C@H]2Cc3c(-c4ccccc4)nc4c(c3CO2)CN(CCOc2ccccc2)CC4)cc1 ... 1.11
CCCNC(=O)[C@@H]1c2ccccc2C(=O)N(c2ccc(C)cn2)[C@H]1c1ccc(CO)cc1 ... 1.4
CC(CCN1CCc2nc(-c3ccccc3)c(-c3ccccc3)cc2C1)=NOC(C)CN1CCCCc2nc(C)c(C)cc21 (stereo not drawn) ... 0.885
C=C(CCCC)C(=O)CC[C@@H](OC(C)=O)c1cccc(OCCO)c1 ... 1.36

// query I am curious: what composite z-score value has been reported for CC(C)[C@H](NC(=O)OC(C)(C)C)[C@@H](O)CC(=O)OC(C)(C)C ?
// result -1.18

// query What does the data say about its composite z-score? Entry: CC(C)N1CC=CC23O[C@@H]4C=CCCOC(=O)C4[C@H]2C(=O)N(CCCCCCO)[C@@H]3C1=O (stereo partly drawn)
// result 0.896

// query Give the measured composite z-score of CC(=O)OC[C@H]1O[C@H](CCON=C(C)CCC(=O)OC[C@H]2O[C@H](C#Cc3ccccc3)C=C[C@@H]2Oc2ccc(C)cc2)C=C[C@@H]1OC(C)=O .
// result 0.359

---

Entries and their composite z-score values follow.
- assayName: small-molecule binders of probe aInhba, primary screen, biochemical, small-molecule microarray, 635/667 nm fluorescence (AID 1148);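 note: score merges 667nm spot fluorescence with signal-to-noise for antibody binding to printed compounds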
- runParameters: higher = more signal
# print the numeric value only

Recorded composite z-score, per entry:
CC(CCN1CCc2nc(-c3ccccc3)c(-c3ccccc3)cc2C1)=NOC[C@@H](C)[C@H](OCc1ccccc1)C(C)C ... -0.261
CO[C@H]1COC(=O)CC=C[C@H](C)[C@@H](NS(=O)(=O)c2ccc(C)cc2)COC(=O)CC=C[C@@H]1C ... -0.127

// query Record request: composite z-score value, item C[C@H]1Cc2c(-c3ccccc3)nc3c(c2CO1)CN(CCOc1ccccc1)CC3
// result -0.0313

// query # composite z-score lookup, item CC(C)=CCCC(C)=CCON=C1[C@H]2CCn3c(=O)n(C)c(=O)n3[C@H]2[C@H](O)[C@@H]2O[C@H]12
// result -0.12

---

- Tested on: Inhibin beta A chain (activin A)
- assayName: INHBA (activin A) binders on microarrays, primary screen, biochemical, small-molecule microarray, 635 nm fluorescence scan (AID 1107);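 note: mouse activin A protein probed at 4.33 µg/mL on printed slides; score merges bound-protein fluorescence near 667 nm with spot signal-to-noise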
- runParameters: small-molecule microarray binding, higher = more signal
Assign label 1 whenever composite z-score does not fall below 0.9; assign label 0 whenever it does.

As a guide, the following entries are already answered.
CO[C@@H]1COC(=O)CC=C[C@@H](C)[C@@H]2C=C[C@H](O)[C@@H](COC(=O)CCC[C@H]1C)O2 ... label 1
COc1ccc(O[C@H]2C=C[C@@H](c3ccccc3)O[C@@H]2CON=C[C@@H](C)[C@H](OCc2ccccc2)C(C)C)cc1 ... label 0
CO[C@H]1O[C@H](CO)[C@@H](OC(=O)Nc2ccc(C#N)cc2)[C@H](OC(=O)c2cc3ccccc3[nH]2)[C@H]1OC(=O)c1cc2ccccc2[nH]1 ... label 0
CCCC[C@H]1OB(O)C[C@H]2C1=C(C)C[C@H]1C(=O)N(C)C(=O)[C@H]12 ... label 0

// query Reported composite z-score reaches at least 0.9 for COc1ccc(O[C@H]2C=C[C@@H](c3ccccc3)O[C@@H]2COC(=O)CCC(C)=NO[C@@H](C)c2cc(-c3c(C)cc(C)cc3C)no2)cc1 ?
// result label 1

// query # check: composite z-score of CC(C)NC(=O)[C@@H]1c2ccccc2C(=O)N(CC23CC4CC(CC(C4)C2)C3)[C@H]1c1ccc(CO)cc1 is greater than or equal to 0.9
// result label 0

// query Form field: composite z-score at least 0.9? Entry: CC1(C)OCC(C(O)C2=CCCCC2=O)CO1 (stereo not drawn)
// result label 1

// query Check the entry C[C@@H]1C=CCC(=O)OC[C@H](C)C(=O)N[C@@H](C)C(=O)OC1 : does composite z-score equal or exceed 0.9?
// result label 0

---

- Tested on: XIP peptide (Xip251-270)
- assayName: small-molecule binders of XIP peptide, primary screen, biochemical, small-molecule microarray, fluorescence 635/667 nm, 0.5 µg/mL protein (AID 1183)
- runParameters: small-molecule microarray binding, fluorescence 635 nm; higher = more signal
quantityName: composite z-score
Lab note: jot down the number only; don't add units.

CCOC(=O)C[C@H]1[C@H](OC(=O)c2cc3ccccc3oc2=O)[C@@H](NC(=O)c2ccc3ccccc3n2)c2cc(OCCCO)ccc2N1C(=O)c1ccccc1 ... -0.224
CCCCCN1CC=CC23O[C@@H]4C=CCOC(=O)[C@@H]4[C@H]2C(=O)N(C(CO)C(C)C)[C@@H]3C1=O (stereo partly drawn) ... 0.907

Consider the additional compound presented here.
// query What does the record list as composite z-score for O=C1O[C@@H](c2ccccc2)[C@@H](c2ccccc2)N2[C@@H](c3ccc(OCCO)cc3)[C@]3(C(=O)Nc4ccc(C#CCCO)cc43)[C@@H](C(=O)N3CCCCCCC3)[C@H]12 ?
// result 0.883

---

- assayName: RPMI8226 myeloma cell viability, profiling panel, resazurin fluorescence, basal, 24 h, PK04 Diversity Set (AID 1180);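 note: RPMI8826 multiple myeloma cell line at 5000 cells per well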
- runParameters: higher = more signal
quantityName: z-score
Enter the number alone.

CC(CCC(=O)OC[C@H]1O[C@H](C#Cc2ccccc2)C=C[C@@H]1Oc1ccc(C)cc1)=NOC[C@@H](O)COCc1ccco1 ... 0.131
O=C1[C@H]2[C@H]3[C@H](O)[C@H](O)CC(=NOCc4ccccc4)[C@@H]3CC[C@H]2C(=O)N1C1CCCCC1 ... -0.456
O=C(CS)NCCCCCNC(=O)[C@@H]1C[C@@H]2C(=O)N[C@@H](Cc3ccccc3)C(=O)N2[C@@H]1c1ccc(O)cc1 ... 0.252
CCOc1ccc(N2C(=O)/C(=C/C=C/c3ccccc3OC)S(=O)(=O)C2c2cccc([N+](=O)[O-])c2)cc1 (stereo unspecified) ... -0.548

// query What measured z-score goes with CCN1C(=O)[C@H]2[C@H]3[C@H](O)[C@H](O)CC(=NOCc4ccccc4)[C@@H]3CC[C@H]2C1=O ?
// result -1.89

// query What does the data say about its z-score? Entry: COC(=O)[C@H](C)NC(=O)CCC1CC(OC(=O)NCc2cccc3ccccc23)CC2(CCCC(COC(=O)NCC3CCCCC3)O2)O1 (stereo partly specified)
// result 1.23

---

- testedTarget: Torsin-1A-interacting protein 1 (Homo sapiens)
- assayName: LAP1 binders from COS7 cell lysate, primary screen, small-molecule microarray, 635/667 nm fluorescence (AID 1116)
- runParameters: COS7-hLAP1 lysate binding, 635 nm fluorescence, higher = more signal
quantityName: composite z-score
Returns: the value as a bare number; no unit string appended.

Consider the worked cases shown below.
COc1ccc([Si](C)(C)[C@@H]2[C@@H](CCO)O[C@]3(C(=O)N(Cc4ccc(NC(C)=O)cc4)c4ccccc43)[C@H]2C)cc1 ... 0.802
CC(C)CON=C1[C@H]2CCn3c(=O)n(-c4ccccc4)c(=O)n3[C@H]2[C@H](O)[C@@H]2O[C@H]12 ... 0.14
COC(=O)C1=C(C)[C@@H](O)[C@@H](C)[C@H](c2c(OC)c(OC)c(C)c(OC)c2OC)O1 ... 0.272
CO[C@@H]1COC(=O)CCC[C@@H](C)[C@H](OC)COC(=O)[C@H](Cc2ccccc2)NC(=O)CC=C[C@H]1C ... -0.405
Cc1ccc(S[C@]2(C(=O)NCC(F)(F)F)CC(=O)N(Cc3ccccc3Cl)[C@@H]2c2ccc(CO)cc2I)cc1 ... -0.373

// query Would you mind telling me what composite z-score value was observed for CN(C)CCCNC(=O)[C@@H]1c2ccccc2C(=O)N(Cc2cc(F)cc(C(F)(F)F)c2)[C@H]1c1ccc(CO)cc1 ?
// result 0.886

// query Find the recorded composite z-score belonging to O=C1NC(=O)C2C1C=CC(C(O)Cc1ccccc1)N2Nc1ccccn1 (stereo not given) and report it.
// result 0.818

// query What does the record list as composite z-score for CCOC(=O)[C@H](CC(C)C)NC(=O)CCC1CC(OC(=O)NCc2cccc3ccccc23)CC2(CCCC(COC(=O)NCCc3ccccc3OC)O2)O1 (stereo not given in full) ?
// result 0.607

// query What does the record list as composite z-score for CCOC(=O)NN=C1C[C@@H](O)[C@@H](O)[C@@H]2[C@@H]3C(=O)N(C4CCCCC4)C(=O)[C@@H]3CC[C@H]12 ?
// result 0.217

// query composite z-score lookup needed for COc1ccc(O[C@H]2C=C[C@@H](c3ccccc3)O[C@@H]2COC(=O)CCC(C)=NO[C@@H](C)c2cc(-c3c(C)cc(C)cc3C)no2)cc1 , thanks.
// result -1.16

// query Param item = C#CCCCON=C1C[C@@H](O)[C@@H](O)[C@@H]2[C@@H]3C(=O)N([C@@H](C)c4ccccc4)C(=O)[C@@H]3CC[C@H]12 ; retrieve measured composite z-score.
// result 0.418

// query I have this compound here, COc1ccc([Si](C)(C)[C@H]2[C@H](CCO)O[C@@]3(C(=O)N(Cc4cccc(NC(=O)[C@H](C)O)c4)c4ccccc43)[C@@H]2C)cc1 , and I need its recorded composite z-score.
// result 0.798
